Test method notes: Study 2, Part 2: lenalidomide-temsirolimus pharmacokinetic interaction, open-label crossover in healthy subjects
Assay type: in vivo, human
Study conditions: human; temsirolimus 25 mg IV alone (n = 14), whole blood; geometric mean (geometric CV %)
Experimental endpoint: Cmax (ng/mL)
Quick reminder: number only, in ng/mL, skip the unit.

CO[C@H]1C[C@@H]2CC[C@@H](C)[C@@](O)(O2)C(=O)C(=O)N2CCCC[C@H]2C(=O)O[C@H]([C@H](C)C[C@@H]2CC[C@@H](OC(=O)C(C)(CO)CO)[C@H](OC)C2)CC(=O)[C@H](C)/C=C(\C)[C@@H](O)[C@@H](OC)C(=O)[C@H](C)C[C@H](C)/C=C/C=C/C=C/1C [Temsirolimus] yielded Cmax of 586

###

Test method notes: Study 1: lenalidomide-digoxin pharmacokinetic interaction, double-blind placebo-controlled crossover in healthy subjects
Study conditions: human, plasma, oral, 0.5 mg
Experimental endpoint: half-life (h)
Quick reminder: number only, in h, skip the unit.

"C[C@H]1O[C@@H](O[C@H]2[C@@H](O)C[C@H](O[C@H]3[C@@H](O)C[C@H](O[C@H]4CC[C@@]5(C)[C@H](CC[C@@H]6[C@@H]5C[C@@H](O)[C@]5(C)[C@@H](C7=CC(=O)OC7)CC[C@]65O)C4)O[C@@H]3C)O[C@@H]2C)C[C@H](O)[C@@H]1O" yielded half-life of 32.3

###

Test method notes: Study 2, Part 2: lenalidomide-temsirolimus pharmacokinetic interaction, open-label crossover in healthy subjects
Assay type: in vivo, human
Study conditions: human; temsirolimus 25 mg IV + lenalidomide 25 mg (n = 11), whole blood; geometric mean (geometric CV %)
Experimental endpoint: half-life (h)
Quick reminder: number only, in h, skip the unit.

"CO[C@H]1C[C@@H]2CC[C@@H](C)[C@@](O)(O2)C(=O)C(=O)N2CCCC[C@H]2C(=O)O[C@H]([C@H](C)C[C@@H]2CC[C@@H](OC(=O)C(C)(CO)CO)[C@H](OC)C2)CC(=O)[C@H](C)/C=C(\C)[C@@H](O)[C@@H](OC)C(=O)[C@H](C)C[C@H](C)/C=C/C=C/C=C/1C" yielded half-life of 15.2

###

Test method notes: clinical
Study conditions: human, in vivo, 10 mg
Description: Study 1 was designed as a double-blind, placebo-controlled, randomized, 2-period, crossover trial. […] For analysis of lenalidomide in plasma and urine, the assay ranges were 5–1,000 and 100–20,000 ng/mL, respectively, and the details of methods were described previously. […] H7]-temsirolimus were quantitatively extracted from whole blood sample by protein precipitation extraction. […]
Experimental endpoint: Tmax (h)
Quick reminder: number only, in h, skip the unit.

Nc1cccc2c1CN(C1CCC(=O)NC1=O)C2=O (stereo not shown) [Lenalidomide] yielded Tmax of 1

###

Test method notes: Study 2, Part 2: lenalidomide-temsirolimus pharmacokinetic interaction, open-label crossover in healthy subjects
Assay type: in vivo, human
Study conditions: human; temsirolimus 25 mg IV alone (n = 14), whole blood; geometric mean (geometric CV %)
Experimental endpoint: half-life (h)
Quick reminder: number only, in h, skip the unit.

CO[C@H]1C[C@@H]2CC[C@@H](C)[C@@](O)(O2)C(=O)C(=O)N2CCCC[C@H]2C(=O)O[C@H]([C@H](C)C[C@@H]2CC[C@@H](OC(=O)C(C)(CO)CO)[C@H](OC)C2)CC(=O)[C@H](C)/C=C(\C)[C@@H](O)[C@@H](OC)C(=O)[C@H](C)C[C@H](C)/C=C/C=C/C=C/1C [Temsirolimus] yielded half-life of 15.3

###

Test method notes: Study 2, Part 2: lenalidomide-temsirolimus pharmacokinetic interaction, open-label crossover in healthy subjects
Assay type: in vivo, human
Study conditions: human, oral; lenalidomide 25 mg alone (n = 17), plasma; median (range)
Experimental endpoint: Tmax (min)
Quick reminder: number only, in min, skip the unit.

Nc1cccc2c1CN(C1CCC(=O)NC1=O)C2=O (stereo not shown) [Lenalidomide] yielded Tmax of 30

###

Test method notes: Study 2, Part 2: lenalidomide-temsirolimus pharmacokinetic interaction, open-label crossover in healthy subjects
Assay type: in vivo, human
Study conditions: human, plasma and urine, oral; lenalidomide 25 mg alone (n = 17); geometric mean (geometric CV %); read-out: CLR (renal clearance)
Experimental endpoint: CL renal

Nc1cccc2c1CN(C1CCC(=O)NC1=O)C2=O (stereo not shown) [Lenalidomide] yielded CL renal of 251 mL/min

###

Test method notes: Study 2, Part 2: lenalidomide-temsirolimus pharmacokinetic interaction, open-label crossover in healthy subjects
Assay type: in vivo, human
Study conditions: human; temsirolimus 25 mg IV + lenalidomide 25 mg (n = 11), whole blood; geometric mean (geometric CV %)
Experimental endpoint: Cmax
Include the unit right after the number.

CO[C@H]1C[C@@H]2CC[C@@H](C)[C@@](O)(O2)C(=O)C(=O)N2CCCC[C@H]2C(=O)O[C@H]([C@H](C)C[C@@H]2CC[C@@H](OC(=O)C(C)(CO)CO)[C@H](OC)C2)CC(=O)[C@H](C)/C=C(\C)[C@@H](O)[C@@H](OC)C(=O)[C@H](C)C[C@H](C)/C=C/C=C/C=C/1C [Temsirolimus] yielded Cmax of 649 ng/mL

###

Test method notes: Study 2, Part 2: lenalidomide-temsirolimus pharmacokinetic interaction, open-label crossover in healthy subjects
Assay type: in vivo, human
Study conditions: human, oral; lenalidomide 25 mg alone (n = 17), plasma; geometric mean (geometric CV %)
Experimental: Study 2, Part 2 was designed as an open-label, fixed-sequence, 3-period, crossover trial. In Period 1, subjects received a single oral dose of 25 mg lenalidomide; in Period 2, subjects received a single dose of temsirolimus 25 mg via a 30-min intravenous (IV) infusion; and in Period 3, subjects received both a single 25 mg oral dose of lenalidomide and a single 25 mg IV dose of temsirolimus. […]
Experimental endpoint: AUC(0-t) (ng·h/mL)
Quick reminder: number only, in ng·h/mL, skip the unit.

Nc1cccc2c1CN(C1CCC(=O)NC1=O)C2=O (stereo not shown) [Lenalidomide] yielded AUC(0-t) of 1280

###

Test method notes: Study 2, Part 2: lenalidomide-temsirolimus pharmacokinetic interaction, open-label crossover in healthy subjects
Type: in vivo, human
Study conditions: human; lenalidomide 25 mg + temsirolimus 25 mg IV (n = 11), plasma; geometric mean (geometric CV %)
Experimental endpoint: Cmax (ng/mL)
Quick reminder: number only, in ng/mL, skip the unit.

Nc1cccc2c1CN(C1CCC(=O)NC1=O)C2=O (stereo not shown) [Lenalidomide] yielded Cmax of 361

###

Test method notes: Study 2, Part 2: lenalidomide-temsirolimus pharmacokinetic interaction, open-label crossover in healthy subjects
Format: in vivo, human
Study conditions: human; lenalidomide 25 mg + temsirolimus 25 mg IV (n = 11), plasma; geometric mean (geometric CV %)
Experimental endpoint: AUC(0-inf) (ng·h/mL)
Quick reminder: number only, in ng·h/mL, skip the unit.

Nc1cccc2c1CN(C1CCC(=O)NC1=O)C2=O (stereo not shown) [Lenalidomide] yielded AUC(0-inf) of 1440
